# EXPERIMENTAL DETAILS: in vitro
# MEASUREMENT PARAMETERS: human, hek293t cells
viability at 48 h, 25 µM under 90% gets class 1, anything at or over 90% gets class 0.

>  <COMPOUND>
CC(Cl)C(=O)N1CCN(c2cc(-c3ccccc3F)n[nH]2)CC1 (centres unmarked)

>  <ASSIGNED CATEGORY>
class 1

$$$$
>  <COMPOUND>
CC(Cl)C(=O)N(C)C(C)c1cccc(NC(=O)c2ccccc2)c1 (centres unmarked)

>  <ASSIGNED CATEGORY>
class 0

$$$$
>  <COMPOUND>
C=CC(=O)N(C)CC(=O)NC1CCCN(c2ccc(F)cc2F)C1=O (centres unmarked)

>  <ASSIGNED CATEGORY>
class 1

$$$$
>  <COMPOUND>
CC(Cl)C(=O)N1CCCN(C)c2cc(F)ccc21 (centres unmarked)

>  <ASSIGNED CATEGORY>
class 0

$$$$
>  <COMPOUND>
C=CC(=O)Nc1cccc(C(=O)C(F)F)c1

>  <ASSIGNED CATEGORY>
class 1

$$$$
>  <COMPOUND>
C=CC(=O)Nc1ccc(S(=O)(=O)N(C)C)c(C)c1

>  <ASSIGNED CATEGORY>
class 1

$$$$
>  <COMPOUND>
O=C(CCl)NCCC1CCCC1(F)F (centres unmarked)

>  <ASSIGNED CATEGORY>
class 1

$$$$
>  <COMPOUND>
O=C(CCl)c1ccncc1

>  <ASSIGNED CATEGORY>
class 1

$$$$
>  <COMPOUND>
CC(Cl)C(=O)NCc1ccco1 (centres unmarked)

>  <ASSIGNED CATEGORY>
class 0

$$$$
>  <COMPOUND>
Cc1ccc(C=C(C#N)C(=O)Nc2ccc(C(=O)O)cc2)o1

>  <ASSIGNED CATEGORY>
class 0

$$$$
>  <COMPOUND>
CC(Cl)C(=O)Nc1cccc2ccccc12 (centres unmarked) [5-N12, 2-chloro-N-(naphthalen-1-yl)propanamide]

>  <ASSIGNED CATEGORY>
class 0

$$$$

* * *

# EXPERIMENTAL DETAILS: in vitro
# MEASUREMENT PARAMETERS: human, hek293t cells

>  <COMPOUND>
COCc1ccc(CNC(=O)CCl)cc1 [6-O22]

>  <viability at 48 h, 25 µM [%]>
99.4

$$$$
>  <COMPOUND>
CC(c1ccccc1F)N1CCCC(NC(=O)CCl)C1=O (stereo not drawn) [5-I10]

>  <viability at 48 h, 25 µM [%]>
80.5

$$$$
>  <COMPOUND>
Cc1ccc(NC(=O)C2(CNC(=O)C(C)Cl)CCCC2)cc1C (stereo not drawn) [7-J13]

>  <viability at 48 h, 25 µM [%]>
108

$$$$
>  <COMPOUND>
CC1CCCN(Cc2ccc(CNC(=O)CCl)cc2)C1 (stereo not drawn) [6-K04]

>  <viability at 48 h, 25 µM [%]>
56.4

$$$$
>  <COMPOUND>
Cc1cc(NC(=O)CCl)c([N+](=O)[O-])cc1C [4-F21]

>  <viability at 48 h, 25 µM [%]>
112

$$$$
>  <COMPOUND>
CN(CCc1ccccc1O)C(=O)CCl [7-P21]

>  <viability at 48 h, 25 µM [%]>
-0.172

$$$$
>  <COMPOUND>
N#CC(=Cc1ccsc1)C(=O)NCc1ccco1 [9-H22]

>  <viability at 48 h, 25 µM [%]>
123

$$$$
>  <COMPOUND>
CC(Cl)C(=O)Nc1cc(C(C)(C)C)nn1-c1ccccc1 (stereo not drawn) [4-H11]

>  <viability at 48 h, 25 µM [%]>
93

$$$$
>  <COMPOUND>
Cn1cc(S(=O)(=O)N2CCOCC2)cc1C(=O)NC(=O)CCl [4-P20]

>  <viability at 48 h, 25 µM [%]>
106

$$$$
>  <COMPOUND>
O=C(CCl)N1CCN(CCOc2ccccc2)CC1 [4-H14]

>  <viability at 48 h, 25 µM [%]>
1.67

$$$$
>  <COMPOUND>
C=CC(=O)N1CCn2nccc21 [1-P16]

>  <viability at 48 h, 25 µM [%]>
56.6

$$$$
>  <COMPOUND>
O=C(CCl)NC(c1ccc(F)c(Cl)c1)C(F)(F)F (stereo not drawn) [7-D16]

>  <viability at 48 h, 25 µM [%]>
0.544

$$$$
>  <COMPOUND>
N#CC(=Cc1cccc(F)c1F)C(=O)NCc1ccccc1 [8-B06]

>  <viability at 48 h, 25 µM [%]>
27.1

$$$$
>  <COMPOUND>
C=CC(=O)NCCn1cc(Cl)c(C(F)(F)F)n1 [2-F03]

>  <viability at 48 h, 25 µM [%]>
81.6

$$$$
>  <COMPOUND>
COc1ccc(NC(=O)CCl)cc1S(=O)(=O)N1CCCCC1 [4-B08]

>  <viability at 48 h, 25 µM [%]>
0.454

$$$$
>  <COMPOUND>
CC(Cl)C(=O)N1CCCC1Cc1cccc(F)c1F (stereo not drawn) [7-E19]

>  <viability at 48 h, 25 µM [%]>
61.3

$$$$
>  <COMPOUND>
CCc1ccccc1NC(=O)CN(C)C(=O)CCl [6-L06]

>  <viability at 48 h, 25 µM [%]>
0.728

$$$$
>  <COMPOUND>
Cc1nnc(C(C)NC(=O)C(C)Cl)s1 (stereo not drawn) [7-D11]

>  <viability at 48 h, 25 µM [%]>
104

$$$$
>  <COMPOUND>
N#CC(=Cc1ccc(F)cc1)C(=O)NCCc1cccc(Cl)c1 [8-K06]

>  <viability at 48 h, 25 µM [%]>
49.6

$$$$
>  <COMPOUND>
C=CC(=O)N1CCC(C(=O)N(C)Cc2ccc([S+](C)[O-])cc2)CC1 (stereo not drawn) [2-D06]

>  <viability at 48 h, 25 µM [%]>
76.4

$$$$
>  <COMPOUND>
COc1ccc(N(CC(F)(F)F)C(=O)CCl)cc1 [4-C15]

>  <viability at 48 h, 25 µM [%]>
0.659

$$$$
>  <COMPOUND>
CC(Cl)C(=O)NCc1nc(C2CC2)n[nH]1 (stereo not drawn) [7-L19]

>  <viability at 48 h, 25 µM [%]>
91.3

$$$$
>  <COMPOUND>
C=CC(=O)NCc1cscn1 [1-I07]

>  <viability at 48 h, 25 µM [%]>
69.5

$$$$
>  <COMPOUND>
C=CC(=O)NC(C)c1nc(C2CCCCC2)no1 (stereo not drawn) [1-N17]

>  <viability at 48 h, 25 µM [%]>
102

$$$$
>  <COMPOUND>
COCC(C)n1c(C)cc(C=C(C#N)C(=O)NS(C)(=O)=O)c1C (stereo not drawn) [8-B04]

>  <viability at 48 h, 25 µM [%]>
94.8

$$$$
>  <COMPOUND>
C=CC(=O)N1CCC(NC(=O)c2oc(C)cc2C)CC1 [2-K17]

>  <viability at 48 h, 25 µM [%]>
79.7

$$$$
>  <COMPOUND>
CC(NC(=O)CCl)c1ccc2ncsc2c1 (stereo not drawn) [6-A18]

>  <viability at 48 h, 25 µM [%]>
2.3

$$$$
>  <COMPOUND>
C=CC(=O)NCCC(=O)N1CCC2(CC(=O)c3ccccc3O2)C1 (stereo not drawn) [1-F12]

>  <viability at 48 h, 25 µM [%]>
82.1

$$$$
>  <COMPOUND>
Cc1ccc(NC(=O)C2CSCN2C(=O)CCl)c(C)c1 (stereo not drawn) [5-M07]

>  <viability at 48 h, 25 µM [%]>
0.0812

$$$$
>  <COMPOUND>
CCCCNC(=O)C(C#N)=Cc1ccc(C)s1 [9-J06]

>  <viability at 48 h, 25 µM [%]>
94.4

$$$$
>  <COMPOUND>
N#CC(=CC=Cc1ccccc1[N+](=O)[O-])C(N)=O [8-F19]

>  <viability at 48 h, 25 µM [%]>
1.55

$$$$
>  <COMPOUND>
C=CC(=O)N(CC)CC(=O)N1CCc2c(cccc2NC(C)=O)C1 [3-K16]

>  <viability at 48 h, 25 µM [%]>
90.5

$$$$
>  <COMPOUND>
Cc1cc(CC(C)NC(=O)C(C)Cl)n(-c2ccccc2)n1 (stereo not drawn) [7-H21]

>  <viability at 48 h, 25 µM [%]>
80.1

$$$$
>  <COMPOUND>
O=C(CCl)Nc1cc(-n2nnnc2C2CC2)ccc1F [6-E09]

>  <viability at 48 h, 25 µM [%]>
2.11

$$$$
>  <COMPOUND>
N#CC(=Cc1cccc2ccccc12)C(=O)Nc1ccccc1Cl [8-K11]

>  <viability at 48 h, 25 µM [%]>
80.5

$$$$
>  <COMPOUND>
O=C(CCl)Nc1nnc(-c2ccccc2Cl)s1 [6-K17]

>  <viability at 48 h, 25 µM [%]>
0.539

$$$$
>  <COMPOUND>
O=C(CCc1ccccc1)NC1CCN(C(=O)CCl)CC1 [5-L08]

>  <viability at 48 h, 25 µM [%]>
1.18

$$$$
>  <COMPOUND>
C=CC(=O)N1CCC(C(=O)N2CCC(C(C)(C)O)CC2)CC1 [2-H14]

>  <viability at 48 h, 25 µM [%]>
60.8

$$$$
>  <COMPOUND>
CCN(C(=O)C(C)Cl)C1CCCCC1 (stereo not drawn) [5-I19, 2-chloro-N-cyclohexyl-N-ethylpropanamide]

>  <viability at 48 h, 25 µM [%]>
134

$$$$
>  <COMPOUND>
CC(Cl)C(=O)NC(C)c1ncn(C)n1 (stereo not drawn) [6-P13]

>  <viability at 48 h, 25 µM [%]>
112

$$$$
>  <COMPOUND>
N#CC(=Cc1ccco1)C(=O)NS(=O)(=O)N1CCc2ccccc21 [9-J18]

>  <viability at 48 h, 25 µM [%]>
116

$$$$
>  <COMPOUND>
Cc1ncc(CNC(=O)C(C)Cl)n1C (stereo not drawn) [5-J15]

>  <viability at 48 h, 25 µM [%]>
106

$$$$
>  <COMPOUND>
COc1ccc(C=C(C#N)C(=O)Nc2cc(C)ccc2C)cc1Cl [9-B22]

>  <viability at 48 h, 25 µM [%]>
92.9

$$$$
>  <COMPOUND>
CC(=Cc1ccccc1)C=C(C#N)C(=O)NC1CC1 [9-F12]

>  <viability at 48 h, 25 µM [%]>
92.3

$$$$
>  <COMPOUND>
O=C(CCl)NC1C=C(c2ccc(Cl)cc2)CCC1 (stereo not drawn) [7-P08]

>  <viability at 48 h, 25 µM [%]>
0.393

$$$$
